- ASSAY_COMMENT: PSAC antagonists in infected red cells, primary screen, cell-based, P. falciparum Indochina, OD700, 18 h (AID 1157)
- STATED_CONDITIONS: P. falciparum Indochina infected erythrocytes, osmotic lysis OD700, 18 h; higher = more signal, called active from +8 up or from −8 down
Calls of active or inactive are those of the source.
RESULT_TYPE: z-score

Query string: Quick one: z-score of `CC(CCN1CCCCc2nc(C)c(C)cc21)=NO[C@H](C)c1cn([C@@H]2COC[C@H]2O)nn1` ?
Result string: 0.342 (inactive)

Query string: Quick one: z-score of `COc1ccc2c(c1)O[C@@H](c1cccc(C(F)(F)F)c1)[C@H](O)C2=O` ?
Result string: 0.347 (inactive)

Query string: Quick one: z-score of COC(=O)[C@H](C)NC(=O)CCC1CC(OC(=O)NCc2cccc3ccccc23)CC2(CCCC(COC(=O)NCCCN3CCCC3=O)O2)O1 (some centres undefined) ?
Result string: 0.246 (inactive)

Query string: Quick one: z-score of `C#CCCCON=C1C[C@@H](O)[C@@H](O)[C@@H]2[C@@H]3C(=O)N(C[C@@H]4CCCO4)C(=O)[C@@H]3CC[C@H]12` ?
Result string: 0.0603 (inactive)

Query string: Quick one: z-score of COC(=O)[C@H](C)NC(=O)CCC1CC(OC(=O)NCCc2ccc(F)cc2)CC2(CCCC(COC(=O)NCc3ccccc3)O2)O1 (some centres undefined) ?
Result string: -0.268 (inactive)

Query string: Quick one: z-score of CC(CCC(=O)OC[C@H]1O[C@H](C#Cc2ccccc2)C=C[C@@H]1Oc1ccc(C)cc1)=NOC(C)CN1CCCCc2nc(C)c(C)cc21 (some centres undefined) ?
Result string: 0.662 (inactive)

Query string: Quick one: z-score of `C[C@@H]1CC[C@H]2C(=O)N3[C@@H](CC[C@@H](C)[C@@H]3c3ccc(Br)cc3)C(=O)N2[C@H]1c1ccc(Br)cc1` ?
Result string: 0.689 (inactive)

Query string: Quick one: z-score of `CC(=O)OC[C@H]1O[C@H](CCON=C(C)C)C=C[C@@H]1OC(C)=O` ?
Result string: 0.196 (inactive)

Query string: Quick one: z-score of `C#CCCCON=C1[C@H]2CCn3c(=O)n(Cc4cc5c(cc4Cl)OCO5)c(=O)n3[C@H]2[C@H](O)[C@@H]2O[C@H]12` ?
Result string: 0.035 (inactive)

Query string: Quick one: z-score of `C#CCCCON=C1C[C@@H](O)[C@@H](O)[C@@H]2[C@@H]3C(=O)N(CC)C(=O)[C@@H]3CC[C@H]12` ?
Result string: 0.0581 (inactive)

Query string: Quick one: z-score of `CCOC(=O)CCN1C(=O)[C@H]2[C@H]3[C@H](O)[C@H](O)CC(=NNC(=O)OCc4ccccc4)[C@H]3CC[C@H]2C1=O` ?
Result string: 0.0606 (inactive)

Query string: Quick one: z-score of `CC(C)=NO[C@@H](C)c1cn([C@H](CO)Cc2ccccc2)nn1` ?
Result string: -1.75 (inactive)

Query string: Quick one: z-score of `C[C@@H](c1ccccc1)N1C(=O)[C@H]2[C@H]3[C@H](O)[C@H](O)CC(=NNC(=O)OCc4ccccc4)[C@@H]3CC[C@H]2C1=O` ?
Result string: 0.329 (inactive)

Query string: Quick one: z-score of `O=C1[C@H]2CCn3c(=O)n(-c4ccccc4)c(=O)n3[C@H]2[C@H](O)[C@@H]2O[C@H]12` ?
Result string: 0.304 (inactive)
